# systemName: human β3 receptor (Homo sapiens)
# Construct: The human neuroblastoma cells (SK-N-MC) was available from American Type Culture Collection (HTB 10); host or cells: SK-N-MC human neuroblastoma cells
# Sequence (P13945 whole entry): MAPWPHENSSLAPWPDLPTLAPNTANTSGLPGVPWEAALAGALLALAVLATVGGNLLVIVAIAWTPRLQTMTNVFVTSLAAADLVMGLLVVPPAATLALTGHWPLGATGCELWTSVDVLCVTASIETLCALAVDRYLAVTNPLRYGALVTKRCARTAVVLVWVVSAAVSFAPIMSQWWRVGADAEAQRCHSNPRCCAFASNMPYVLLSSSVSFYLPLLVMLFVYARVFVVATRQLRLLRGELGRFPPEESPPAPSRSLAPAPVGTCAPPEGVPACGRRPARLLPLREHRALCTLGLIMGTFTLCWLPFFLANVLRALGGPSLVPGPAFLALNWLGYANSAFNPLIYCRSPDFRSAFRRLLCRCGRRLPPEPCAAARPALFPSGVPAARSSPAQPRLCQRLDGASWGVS
# assayMethodText: β3 agonistic activity on human β3 receptor (cAMP production in SK-N-MC human neuroblastoma cells)
# Assay type: cell-based
# measurementSetup: 0.5 h, 10^-6 M, 37° C., 30 minutes, vs maximum of isopreterenol at 10^-6 M, hydrochloride, read-out: Ability of cAMP production at 10^-6 M, % (vs. Isopreterenol (ISP))
measurementKind: Emax at 1 µM (%)
One number for each entry, in %.

> print(dat)
                                   compound  measurementkind  reportedvalue
1  COC(=O)C1COc2cc(CC(C)NCC(O)c3cccc(Cl)c3)ccc2O1 (stereo not shown) [Example 10]     Emax at 1 µM             43
2  COC(=O)C1COc2cc(CC(C)NCC(O)c3cccc(C)c3)ccc2O1 (stereo not shown) [Example 2]     Emax at 1 µM             25

Please supply Emax at 1 µM for each of the following items, keeping them in order.
1. COC(=O)C1COc2cc(CC(C)NCC(O)c3cccc(OC)c3)ccc2O1 (stereo not shown) [Example 1]
2. COC(=O)C1COc2cc(CC(C)NCC(O)c3ccc(F)cc3)ccc2O1 (stereo not shown) [Example 12]

result:
1. 21
2. 29

* * *

What log10 EC50 was measured for each of the following?
# systemName: β3 (Rattus norvegicus, UniProt P26255)
# Construct: determined by their activity to stimulate adipocyte lipolysis
# Sequence (P26255 whole entry): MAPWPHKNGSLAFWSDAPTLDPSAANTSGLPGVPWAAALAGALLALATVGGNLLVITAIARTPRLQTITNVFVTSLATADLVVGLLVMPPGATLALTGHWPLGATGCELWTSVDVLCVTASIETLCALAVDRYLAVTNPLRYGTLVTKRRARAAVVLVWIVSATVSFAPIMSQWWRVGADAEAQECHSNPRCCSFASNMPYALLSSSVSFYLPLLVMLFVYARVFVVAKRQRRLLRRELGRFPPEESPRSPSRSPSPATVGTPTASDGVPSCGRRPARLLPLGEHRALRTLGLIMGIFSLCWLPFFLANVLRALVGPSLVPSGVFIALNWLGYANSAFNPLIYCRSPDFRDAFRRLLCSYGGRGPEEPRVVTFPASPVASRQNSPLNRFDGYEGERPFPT
# assayMethodText: β3 agonisitic activity in rats (stimulation of adipocyte lipolysis, rat epididymal fat pads)
# measurementSetup: rat adipocytes, 37° C., 120 minutes; EC50 relative to compound's own maximum rate of lipolysis; hydrochloride; read-out: Lipolysis Molar EC50 value
Structures can show the parent of a compound that is named as a salt.
Log10 applied to EC50; unit prior to transform: µM.

Completed entries (count: 3):
> print(dat)
                                   compound  measurementkind  reportedvalue
1  COC(=O)C1COc2cc(CC(C)NCC(O)c3ccc(F)cc3)ccc2O1 (centres unmarked)       log10 EC50          -1.59
2  CCOC(=O)[C@H]1COc2cc(C[C@@H](C)NC[C@H](O)c3cccc(Cl)c3)ccc2O1 [Example 28, hydrochloride]       log10 EC50          -4.00
3  CCOC(=O)[C@@H]1COc2cc(C[C@@H](C)NC[C@H](O)c3cccc(Cl)c3)ccc2O1       log10 EC50          -1.80

Would you be so kind as to report log10 EC50 for each listed record?
1. CCOC(=O)[C@H]1COc2cc(C[C@H](C)NC[C@H](O)c3cccc(Cl)c3)ccc2O1
2. COC(=O)C1COc2cc(CC(C)NCC(O)c3cccc(C)c3)ccc2O1 (centres unmarked)
3. COC(=O)C1COc2cc(CC(C)NCC(O)c3cccc(OC)c3)ccc2O1 (centres unmarked)
4. CCOC(=O)C1COc2ccc(CC(C)NCC(O)c3ccccc3)cc2O1 (centres unmarked)
5. COC(=O)C1COc2cc(CC(C)NCC(O)c3cccc(C(F)(F)F)c3)ccc2O1 (centres unmarked)

result:
[-2.77, -2.40, -1.34, -1.25, -2.62]

* * *

# systemName: β3 (Rattus norvegicus)
# Construct: determined by their activity to stimulate adipocyte lipolysis
# assayMethodText: β3 agonisitic activity in rats (stimulation of adipocyte lipolysis, rat epididymal fat pads)
# measurementSetup: rat adipocytes, 37° C., 120 minutes; EC50 relative to compound's own maximum rate of lipolysis; hydrochloride; read-out: Lipolysis Molar EC50 value
measurementKind: EC50 (nM)
One number for each entry, in nM.

Worked cases, EC50 given:
> print(dat)
                                   compound              systemname  valueunit  reportedvalue
1  CCOC(=O)C1COc2cc(CC(C)NCC(O)c3ccccc3)ccc2O1 (stereo not drawn)  β3 (Rattus norvegicus)         nM              9
2  COC(=O)C1COc2cc(CC(C)NCC(O)c3ccc4c(c3)OCO4)ccc2O1 (stereo not drawn)  β3 (Rattus norvegicus)         nM            100

Consider the additional compound presented here.
query: Quick one: EC50 of CCOC(=O)[C@@H]1COc2cc(C[C@H](C)NC[C@H](O)c3cccc(Cl)c3)ccc2O1 ?
result: 100
